- Test: Brain migration property: plasma and brain concentration after single oral dose
- Type: in vivo, mouse
- Test Context: BALB/cAJcl-nu/nu, mouse, brain / plasma, oral, individual mice, Cbrain/Cplasma
Observed Property: Kp at 1 h
Simply state the number, no unit and no words.

Query (molecule): COCc1ccc(NC(=O)c2c(C#CCN3CCOCC3)n(C3(C)CC3)c3ncnc(N)c23)cc1 ; field requested: Kp at 1 h
1.88

---

- Test: Rat PK after oral and IV administration
- Type: in vivo
- Test Context: Han Wistar, plasma, intravenous, 3 mg/kg, glucose 5%
Observed Property: Tmax (min)
Reply numerically in min, unit not repeated.

Query (compound): COCc1ccc(NC(=O)c2c(C#CCN3CCOCC3)n(C3(C)CC3)c3ncnc(N)c23)cc1 [HM06/TAS0953] ; field requested: Tmax
4.98
